test system: A549; experiment: SRB antiproliferative assay A549; type: cell-based; details: Homo sapiens, A549, A549, 5% FCS/2 days; read-out: Test Compound IC50 Value in Cell Lines
IC50 overview

Before answering, review these 6 worked examples.
MOLECULE | MEASURE_NAME | OBSERVED
COC(=O)N1Cc2ccccc2C(c2ccccc2)c2ccccc21 (stereo not shown) | IC50 | > 10 µM
CN1Cc2ccccc2C(c2ccccc2Cl)c2ccccc21 (stereo not shown) | IC50 | > 10 µM
CN1Cc2ccccc2C(c2ccccc2)c2cc(Br)ccc21 (stereo not shown) | IC50 | > 10 µM
O=C(Oc1ccccc1)N1Cc2ccccc2C(c2ccccc2)c2ccccc21 (stereo not shown) | IC50 | > 10 µM
Nc1ccc(C(=O)N2Cc3ccccc3C(c3ccccc3Cl)c3ccccc32)cc1 (stereo not shown) | IC50 | > 10 µM
c1ccc(CN2Cc3ccccc3C(c3ccccc3)c3ccccc32)cc1 (stereo not shown) | IC50 | 1.4 µM

Moving on to another molecule below.
Inquiry: Look up IC50 for this molecule: O=C(Nc1ccc([N+](=O)[O-])cc1)N1Cc2ccccc2C(c2ccccc2Cl)c2ccccc21 (stereo not shown)
Reply text: > 10 µM

###

target: Ca2+-activated potassium channel (Gardos channel) of erythrocytes (Homo sapiens); construct: endogenous in cells; host or cells: erythrocytes; test: Gardos channel assay; format: cell-based; details: 10 μM compound
The label depends only on inhibition at 10 µM: Yes if it is at least 10%, No if it is smaller.

COMPOUND | EXPERIMENTAL_TARGET | CLASS
Cc1ccc(C(=O)N2Cc3ccccc3C(c3ccccc3)c3ccccc32)cc1 (stereo not drawn) | Ca2+-activated potassium channel (Gardos channel) of erythrocytes (Homo sapiens) | Yes

Inquiry: Has Nc1ccc(C(=O)N2Cc3ccccc3C(c3ccccc3Cl)c3ccccc32)cc1 (stereo not drawn) a recorded inhibition at 10 µM greater than or equal to 10%?
Reply text: Yes

Inquiry: Has COc1cccc2c1C(c1ccccc1Cl)c1cc(Cl)ccc1N(C(=O)c1ccc([N+](=O)[O-])cc1)C2 (stereo not drawn) a recorded inhibition at 10 µM greater than or equal to 10%?
Reply text: Yes

Inquiry: Has COC(=O)N1Cc2ccccc2C(c2ccccc2Cl)c2ccccc21 (stereo not drawn) a recorded inhibition at 10 µM greater than or equal to 10%?
Reply text: Yes

Inquiry: Has COc1ccc2c(c1)CNc1ccccc1C2(c1ccccc1)c1ccc(F)cc1 (stereo not drawn) a recorded inhibition at 10 µM greater than or equal to 10%?
Reply text: Yes

Inquiry: Has CN1Cc2ccccc2C(c2ccccc2Cl)c2ccccc21 (stereo not drawn) a recorded inhibition at 10 µM greater than or equal to 10%?
Reply text: Yes

Inquiry: Has c1ccc(C2c3ccccc3CNc3ccccc32)cc1 (stereo not drawn) a recorded inhibition at 10 µM greater than or equal to 10%?
Reply text: Yes

Inquiry: Has O=C(c1ccccc1)N1Cc2ccccc2C(c2ccccc2)c2ccccc21 (stereo not drawn) a recorded inhibition at 10 µM greater than or equal to 10%?
Reply text: No

Inquiry: Has COC(=O)N1Cc2ccccc2C(c2ccccc2)c2ccccc21 (stereo not drawn) a recorded inhibition at 10 µM greater than or equal to 10%?
Reply text: Yes

Inquiry: Has O=C(c1ccc([N+](=O)[O-])cc1)N1Cc2ccccc2C(c2ccccc2Cl)c2ccccc21 (stereo not drawn) a recorded inhibition at 10 µM greater than or equal to 10%?
Reply text: No

Inquiry: Has O=C(Oc1ccccc1)N1Cc2ccccc2C(c2ccccc2)c2ccccc21 (stereo not drawn) a recorded inhibition at 10 µM greater than or equal to 10%?
Reply text: Yes

Inquiry: Has Clc1ccc2c(c1)C(c1ccccc1)c1cc3ccccc3cc1CN2 (stereo not drawn) a recorded inhibition at 10 µM greater than or equal to 10%?
Reply text: No

Inquiry: Has Clc1ccccc1C1c2ccccc2CN(Cc2ccccc2)c2ccccc21 (stereo not drawn) a recorded inhibition at 10 µM greater than or equal to 10%?
Reply text: No

Inquiry: Has CN1Cc2ccccc2C(c2ccccc2)c2cc(Br)ccc21 (stereo not drawn) a recorded inhibition at 10 µM greater than or equal to 10%?
Reply text: Yes

Inquiry: Has CCOC(=O)C(=O)N1Cc2ccccc2C(c2ccccc2)c2ccccc21 (stereo not drawn) a recorded inhibition at 10 µM greater than or equal to 10%?
Reply text: Yes

Inquiry: Has O=C(c1ccc2ccccc2c1)N1Cc2ccccc2C(c2ccccc2)c2ccccc21 (stereo not drawn) a recorded inhibition at 10 µM greater than or equal to 10%?
Reply text: No

Inquiry: Has O=C(c1ccc(Cl)cc1)N1Cc2ccccc2C(c2ccccc2)c2ccccc21 (stereo not drawn) a recorded inhibition at 10 µM greater than or equal to 10%?
Reply text: No

Inquiry: Has COc1ccc2c(c1)CN(C(=O)c1ccc([N+](=O)[O-])cc1)c1ccc(Cl)cc1C2c1ccccc1Cl (stereo not drawn) a recorded inhibition at 10 µM greater than or equal to 10%?
Reply text: Yes

###

molecular target: Ca2+-activated potassium channel (Gardos channel) of erythrocytes (Homo sapiens, UniProt O15554); construct: endogenous in cells; host or cells: erythrocytes; assay: Gardos channel assay; assay type: cell-based; conditions: 10 μM compound
inhibition at 10 µM overview
Numbers only; they are read as %.

Before answering, review these 4 worked examples.
MOLECULE | READOUT_UNITS | inhibition at 10 µM
COc1ccc2c(c1)CNc1ccc(Cl)cc1C2c1ccccc1Cl (centres unmarked) | % | 52
COc1ccc2c(c1)CN(C(=O)c1ccc(Cl)cc1)c1ccc(Cl)cc1C2c1ccccc1Cl (centres unmarked) | % | 18.2
O=C(Nc1ccccc1)N1Cc2ccccc2C(c2ccccc2Cl)c2ccccc21 (centres unmarked) | % | 0
O=C(Nc1ccc([N+](=O)[O-])cc1)N1Cc2ccccc2C(c2ccccc2Cl)c2ccccc21 (centres unmarked) | % | 98.3

Inquiry: Look up inhibition at 10 µM for this molecule: COc1ccc(C(=O)N2Cc3ccccc3C(c3ccccc3)c3ccccc32)cc1 (centres unmarked)
Reply text: 2.1

Inquiry: Look up inhibition at 10 µM for this molecule: COc1cccc2c1C(c1ccccc1Cl)c1cc(Cl)ccc1NC2 (centres unmarked)
Reply text: 81.5

Inquiry: Look up inhibition at 10 µM for this molecule: O=C(c1ccc([N+](=O)[O-])cc1)N1Cc2ccccc2C(c2ccccc2)c2ccccc21 (centres unmarked)
Reply text: 13.6

###

IC50 overview
tested on: HEPG2; assay: SRB antiproliferative assay HEPG2; assay type: cell-based; settings: Homo sapiens; HEPG2, 5% FCS/3 days; read-out: Test Compound IC50 Value in Cell Lines
Numbers only; they are read as µM.

Before answering, review these 2 worked examples.
COMPOUND | OBSERVED
CNc1ccc(C(=O)N2Cc3ccccc3C(c3ccccc3Cl)c3ccccc32)cc1 (stereo not shown) [Compound 33] | 6.2
O=C(Oc1ccccc1)N1Cc2ccccc2C(c2ccccc2Cl)c2ccccc21 (stereo not shown) [Compound 26] | 5.4

Moving on to another compound below.
Inquiry: Missing value: IC50, HEPG2, entry O=C(Nc1ccccc1)N1Cc2ccccc2C(c2ccccc2Cl)c2ccccc21 (stereo not shown) [Compound 32] . Fill in?
Reply text: 6.2

###

target: Ca2+-activated potassium channel (Gardos channel) of erythrocytes (Homo sapiens, UniProt O15554); construct: endogenous in cells; host or cells: erythrocytes; test: Gardos channel assay; type: cell-based; details: 10 μM compound
MEASURE_NAME: inhibition at 10 µM (%)
Numbers only; they are read as %.

Before answering, review these 7 worked examples.
COMPOUND | READOUT_UNITS | OBSERVED
O=C(O)C(=O)N1Cc2ccccc2C(c2ccccc2)c2ccccc21 (centres unmarked) | % | 9.5
CN1Cc2ccccc2C(c2ccccc2)c2ccccc21 (centres unmarked) | % | 99
COc1cccc(C(=O)N2Cc3ccccc3C(c3ccccc3)c3ccccc32)c1 (centres unmarked) | % | 20.6
c1ccc(CN2Cc3ccccc3C(c3ccccc3)c3ccccc32)cc1 (centres unmarked) | % | 14.4
CNc1ccc(C(=O)N2Cc3ccccc3C(c3ccccc3Cl)c3ccccc32)cc1 (centres unmarked) | % | 67.5
Clc1ccccc1C1c2ccccc2CNc2ccccc21 (centres unmarked) | % | 97.4
O=C(Oc1ccccc1)N1Cc2ccccc2C(c2ccccc2Cl)c2ccccc21 (centres unmarked) | % | 0.8

Moving on to another compound below.
Inquiry: Look up inhibition at 10 µM for this compound: COc1ccc(C(=O)N2Cc3ccccc3C(c3ccccc3Cl)c3ccccc32)cc1 (centres unmarked)
Reply text: 3

###

system: U118MG; assay: SRB antiproliferative assay U118MG; format: cell-based; conditions: Homo sapiens, U-118-MG; U118MG, 5% FCS/3 days; read-out: Test Compound IC50 Value in Cell Lines
MEASURE_NAME: pIC50
Remember the convention: pIC50 equals -log10 of concentration in molar.

Before answering, review these 4 worked examples.
COMPOUND | OBSERVED
O=C(c1ccc([N+](=O)[O-])cc1)N1Cc2ccccc2C(c2ccccc2Cl)c2ccccc21 (stereo not shown) [Compound 28] | 5.89
COc1ccc(C(=O)N2Cc3ccccc3C(c3ccccc3Cl)c3ccccc32)cc1 (stereo not shown) [Compound 27] | 5.72
CNc1ccc(C(=O)N2Cc3ccccc3C(c3ccccc3Cl)c3ccccc32)cc1 (stereo not shown) [Compound 33] | 5.17
O=C(Oc1ccccc1)N1Cc2ccccc2C(c2ccccc2Cl)c2ccccc21 (stereo not shown) [Compound 26] | 5.24

Moving on to another compound below.
Inquiry: Look up pIC50 for this compound: O=C(Nc1ccccc1)N1Cc2ccccc2C(c2ccccc2Cl)c2ccccc21 (stereo not shown) [Compound 32]
Reply text: 5.17
